Test system: FLT3-autoinhibited
test.conditions: concentration: 1 μM,replicates: in singlicate; n = 1;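 further: KINOMEscan kinase panel screen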
%Inh: recorded values
Quick note: give the figure in %, leave out the unit.

>>> df
                                   molecule  numeric_result
0  O=C(Nc1n[nH]c2cc(-c3ccco3)ccc12)C1CC1 [SB-737447]               4
1  CN(c1ccc2c(c1)nc(NCc1ccc(F)cc1)n2C)c1ccnc(Nc2ccc(CS(C)(=O)=O)cc2)n1.Cl [GW813244]               1
2     CCCC(=O)Nc1n[nH]c2ncccc12 [SB-601436]               0
3    O=C(Nc1ccccc1)c1cccc(Oc2ccc3nccn3n2)c1              16
4  C[C@@H](Oc1cc(-n2cnc3ccc(-c4ccncc4)cc32)sc1C(N)=O)c1ccccc1Cl [GSK483724]               6
5  Cc1cccc(-c2nc(Nc3ccncc3)c3sccc3n2)n1 [GW869641]              14
6  CCN1CCN(CCCC(=O)Nc2n[nH]c3nc(-c4ccc(O)cc4)c(Br)cc23)CC1 [SB-731579]               0
7  Cc1ccn2nc(-c3ccc(F)cc3)c(-c3ccncc3)c2c1.Cl [GW457859]              14
8      Cn1cc(-c2cccc3c(N)c(C(N)=O)nnc23)cn1              30
9  Cl.Nc1n[nH]c2cc(-c3ccccn3)ccc12 [GSK2189892]               0

Ask | Query: %Inh; subject: COc1cc2ncn(-c3cc(OCC4CCCCC4)c(C(N)=O)s3)c2cc1OC [GSK204559]
Reply | 0

Ask | Query: %Inh; subject: CC(C(=O)NC1CCN(c2ccnc(Nc3ccc(F)cc3)n2)C1)c1ccc(Cl)cc1 (stereo not drawn) [GSK1379713]
Reply | 0

###

System: DAPK3
test.conditions: concentration: 1 μM,replicates: in singlicate; n = 1
measured.endpoint: %Inh (%)
Quick note: give the figure in %, leave out the unit.

Past entries and their recorded results:
                                   compound  scale_unit  numeric_result
0  COc1cccc(OC)c1C(=O)Nc1cccc(-c2nn3ccccc3c2-c2ccnc(Nc3cccc(F)c3)n2)c1 [GSK361065]           %               0
1  COC(=O)Nc1nc2cc(Oc3ccc(NC(=O)Nc4cc(C(F)(F)F)ccc4Cl)cc3)ccc2[nH]1.Cl [GW697465]           %               0
2  Cc1ccn2nc(-c3ccc(F)cc3)c(-c3ccncc3)c2c1.Cl [GW457859]           %               0
3  CCn1c(-c2nonc2N)nc2cncc(CNC3CCNCC3)c21.Cl [SB-747651]           %              27
4  Cc1cccc2c(-c3ccncc3)c(-c3ccc(F)cc3)nn12.Cl [GW461487]           %               0

Ask | Query: %Inh; subject: OCCn1cc(-c2cnc3nnn(Cc4ccc5ncccc5c4)c3n2)cn1
Reply | 0

Ask | Query: %Inh; subject: NC(=O)Nc1sc(-c2ccc(F)cc2)cc1C(N)=O [GW789449]
Reply | 38

Ask | Query: %Inh; subject: CC(=O)Nc1ccc(-c2cc3ncnc(SCC(=O)O)c3s2)cc1
Reply | 9

Ask | Query: %Inh; subject: COC(=O)c1cccc(NC(=O)NC2CCN(c3ccnc(NCc4ccc(F)cc4)n3)CC2)c1 [GSK1379860]
Reply | 3

Ask | Query: %Inh; subject: Cn1ccc2ncnc(Oc3ccc(NC(=O)Nc4ccnc(C(F)(F)F)c4)c(Cl)c3)c21
Reply | 0

Ask | Query: %Inh; subject: O=C(Nc1cccc(Oc2ccc3nccn3n2)c1)Nc1cccc(C(F)(F)F)c1
Reply | 0

Ask | Query: %Inh; subject: CCNCC(Cc1ccccc1)NC(=O)c1cc(Br)c(-c2ccnc3[nH]ccc23)s1.Cl.Cl (stereo not drawn) [GSK1383280]
Reply | 28

Ask | Query: %Inh; subject: CCN1CCN(CCCC(=O)Nc2n[nH]c3nc(-c4ccc(O)cc4)c(Br)cc23)CC1 [SB-731579]
Reply | 61

Ask | Query: %Inh; subject: CN(c1ccc2c(c1)nc(NCc1ccc(F)cc1)n2C)c1ccnc(Nc2ccc(CS(C)(=O)=O)cc2)n1.Cl [GW813244]
Reply | 0

Ask | Query: %Inh; subject: CS(=O)c1ccc(-c2coc3ccc(-c4n[nH]c(=O)o4)cc23)cc1 (stereo not drawn)
Reply | 59

###

System: PIK3C2B
test.conditions: concentration: 1 μM,replicates: in singlicate; n = 1
%Inh: recorded values
Quick note: give the figure in %, leave out the unit.

Past entries and their recorded results:
>>> print(df.to_string())
                                test_smiles  numeric_result
0  CCn1c(-c2nonc2N)nc2cncc(CNC3CCNCC3)c21.Cl               0
1  CN(c1cccc(CNc2nc(Nc3ccc4c(c3)CC(=O)N4)ncc2C(F)(F)F)c1)S(C)(=O)=O               0

Ask | // fetch PIK3C2B %Inh for Cc1cccc2c(-c3ccncc3)c(-c3ccc(F)cc3)nn12.Cl
Reply | 0

Ask | // fetch PIK3C2B %Inh for CN1CCN(CCCNc2nccc(-c3c(-c4ccc(F)cc4)nn4cc(C(N)=O)ccc34)n2)CC1
Reply | 8

Ask | // fetch PIK3C2B %Inh for Cl.Nc1n[nH]c2cc(-c3ccccn3)ccc12
Reply | 0

###

%Inh: recorded values
System: FGR
test.conditions: concentration: 1 μM,replicates: in singlicate; n = 1
Quick note: give the figure in %, leave out the unit.

Past entries and their recorded results:
In [3]: df
Out[3]:
                                   compound  scale_unit  numeric_result
0  COc1ccc(Nc2nccc(N3CCC(NC(=O)c4cccc(C#N)c4)C3)n2)cc1 (centres unmarked)           %               0
1  CN(c1ccccc1CNc1nc(Nc2ccc3c(c2)CC(=O)N3)ncc1C(F)(F)F)S(C)(=O)=O           %              37
2  COC(=O)c1cccc(NC(=O)NC2CCN(c3ccnc(Nc4cc(OC)c(OC)c(OC)c4)n3)C2)c1 (centres unmarked)           %              25
3  FC(F)(F)c1cc(Br)cc(Nc2nccc(-c3cnn4ncccc34)n2)c1           %              16
4      Cc1cccc(-c2nc(Nc3ccncc3)c3sccc3n2)n1           %              11
5  O=C(Nc1ccc(Oc2ccc3nc(NC(=O)C4CC4)cn3n2)c(F)c1)c1cccn(-c2ccccc2)c1=O           %              73
6    O=C(Nc1ccccc1)c1cccc(Oc2ccc3nccn3n2)c1           %              10
7  Cl.c1ccc(Oc2ccc(Nc3ccnc4cc(-c5ccc(CN6CCNCC6)o5)ccc34)cc2)nc1           %              74
8  NC(=O)c1ccc(-c2cc3ncnc(SCC(=O)O)c3s2)cc1           %              14
9  C[C@@H](Oc1cc(-n2cnc3cc(-c4cnn(C)c4)ccc32)sc1C(N)=O)c1ccccc1Cl           %              72

Let's switch to this compound now.
Ask | // fetch FGR %Inh for CC(C(=O)NC1CCN(c2ccnc(Nc3ccc(F)cc3)n2)C1)c1ccc(Cl)cc1 (centres unmarked)
Reply | 0

###

%Inh: recorded values
System: p38-beta
Construct: gene MAPK11
test.conditions: concentration: 1 μM,replicates: in singlicate; n = 1
Quick note: give the figure in %, leave out the unit.

In [3]: df
Out[3]:
                                   compound  system_tested  numeric_result
0  CSc1nccc(-c2c(-c3ccc(F)cc3)ncn2CCCN2CCOCC2)n1.Cl [SB-217146]       p38-beta               0

Ask | Query: %Inh; subject: Cn1ccc2ncnc(Oc3ccc(NC(=O)Nc4cncc(C(F)(F)F)c4)c(Cl)c3)c21
Reply | 30

Ask | Query: %Inh; subject: Cc1ccc(CC(=O)N2CCc3cc(-c4cn(C)c5ncnc(N)c45)ccc32)cc1 [GSK2634758]
Reply | 0

Ask | Query: %Inh; subject: Cn1cc(-c2cccc3c(N)c(C(N)=O)nnc23)cn1
Reply | 16

Ask | Query: %Inh; subject: COC(=O)c1cccc(NC(=O)NC2CCN(c3ccnc(NCc4ccc(F)cc4)n3)CC2)c1 [GSK1379860]
Reply | 0

Ask | Query: %Inh; subject: COc1cc2nccc(Nc3ccc(Oc4ccccc4)cc3)c2cc1OC.Cl [GI261656]
Reply | 0

These measurements were taken from paper PMC5540273.
